experiment: melting temperature; fluorescence melt of hairpins on a sequencing array, two-state fit, raised by 9.35 °C to match UV melts; conditions: sodium 0.088 M
experimental.endpoint: Tm (°C)
Just the number in °C, nothing appended.

Guide cases for Tm, answers given:
1) GAGGACGAAAGTCGCCTC ((((((....)))..))): 38.9
2) GCGACCTGTCGC ((((....)))): 68.3
3) GTTAATGGAAACATTAAC (((((((....))))))): 49.4
4) GATCTGATTCCAGATC ((((((....)))))): 48.5
5) GTGTACGAAAGTACCCAC ((((((....)))..))): 31.9

Give the reported Tm for this sequence. CAATGGAAACATTG (((((....)))))
40.6

Give the reported Tm for this sequence. GCAACTCGAAAGAGGTGC (((.(((....))).)))
65.5

###

test: melting temperature; fluorescence melt of hairpins on a sequencing array, two-state fit, raised by 9.35 °C to match UV melts; conditions: sodium 0.088 M
experimental.endpoint: Tm (°C)
Just the number in °C, nothing appended.

1) GATCAGATAACTGATC ((((((....)))))): 46.8
2) GTTTGTCGAAAGACGAAC (((.(((....))).))): 53.1
3) GCAGAGCGAAAGCAATGC (((..((....))..))): 53.9
4) GATCAATGTTTGATC ((((((...)))))): 43.8
5) GCGGGGCGAAAGCACGGC ((.(.((....)).).)): 65.2
6) GCTCGCCGAAAGGCTAGC (((.(((....))).))): 54.6
7) GGGACTGGAAACAGTTCC ((.((((....)))).)): 51.4
8) GTTGCTGGAAACGGTAAC (((.(.(....).).))): 33.7
9) GACAGACGAAAGTCAGTC (((.(((....))).))): 51.7
10) GAGGCTGCGAAAGCACTC (((..(((....)))))): 34.3

Continue with the sequence presented below.
Give the reported Tm for this sequence. GCGATGTTCGC ((((...))))
49.9

###

assay: melting temperature; fluorescence melt of hairpins on a sequencing array, two-state fit, raised by 9.35 °C to match UV melts; conditions: sodium 0.088 M
Listed next: entries and their corresponding Tm.
Just the number in °C, nothing appended.

Guide cases for Tm, answers given:
1) GCTGCCGAAAGGCCAGC ((((((....))).))): 61.5
2) GATCCATAATTGGATC ((((((....)))))): 50.7

Give the reported Tm for this sequence. GTCACCGAAAGGTAAGAC ((((((....)))..)))
39

Give the reported Tm for this sequence. GCTAAGGGAAACCTTGGC ((.((((....)))).))
47.6

Give the reported Tm for this sequence. GATTCCGGAAACGAAATC ((((.((....)).))))
34.3

Give the reported Tm for this sequence. GATCCTACTGAGGATC ((((((....))))))
50.6

Give the reported Tm for this sequence. GTCAGCGAAAGCTGGGAC ((((((....)))..)))
40.2

Give the reported Tm for this sequence. GACGTCGGAAACGACACC (..((((....))))..)
29.3

Give the reported Tm for this sequence. GCATCTGGAAACGGATGC (((((.(....).)))))
53.8

Give the reported Tm for this sequence. GGTATTGCGAAAGCAACC (((..(((....))))))
29.4

Give the reported Tm for this sequence. GCGGAGCCGAAAGGCCGC (((..(((....))))))
61.1

Give the reported Tm for this sequence. GTTTTGCCGAAAGGCAAC (((..(((....))))))
36

Give the reported Tm for this sequence. GATCACCCACGTGATC ((((((....))))))
56.5

Give the reported Tm for this sequence. GATCCTGCGTAGGATC ((((((....))))))
51.4

Give the reported Tm for this sequence. GTCGCGCGAAAGCGGAC (((.(((....))))))
56.5

Give the reported Tm for this sequence. GCGGTGCGAAAGCAAAGC ((..(((....)))..))
63.3

Give the reported Tm for this sequence. GTTATGGGAAACCATAAC (((((((....)))))))
54

Give the reported Tm for this sequence. GTTCCCCGAAAGGGAAC (((.(((....))))))
61.2

Give the reported Tm for this sequence. GAGAAGGGAAACCTTCTC (((((((....)))))))
55.5

Give the reported Tm for this sequence. GATCTAATTATAGATC ((((((....))))))
37.9

Give the reported Tm for this sequence. GATCTGGTTCAGATC ((((((...))))))
49.9

Give the reported Tm for this sequence. GAAGTTGGAAACGACTTC (((((.(....).)))))
47.4

Give the reported Tm for this sequence. GCATTTCGAAAGAAGTGC (((.(((....))).)))
51.4

Give the reported Tm for this sequence. GGGTAGCGAAAGCTTCCC (((.(((....))).)))
56.6

Give the reported Tm for this sequence. GCCAAGGGAAACCTTGGC (((((((....)))))))
68.8

Give the reported Tm for this sequence. ACTGTGAAAACAGT (((((....)))))
46.1

Give the reported Tm for this sequence. GGACGACGAAAGTCTCC (((.(((....))))))
47

Give the reported Tm for this sequence. GGTACACGAAAGTGACC (((.(((....))))))
46.4

Give the reported Tm for this sequence. GAAGGCGAAAGCCCTTC ((((((....))).)))
52.1

###

assay: melting temperature; fluorescence melt of hairpins on a sequencing array, two-state fit, raised by 9.35 °C to match UV melts; conditions: sodium 0.088 M
Listed next: entries and their corresponding Tm.
Just the number in °C, nothing appended.

Give the reported Tm for this sequence. GACAAGGCGAAAGCCGTC (((..(((....))))))
40.9

Give the reported Tm for this sequence. GAGTTACGAAAGTACCTC (((.(((....))).)))
40.3

Give the reported Tm for this sequence. GTAGTCGAAAGACTTAC ((((((....))).)))
39.9

###

Listed next: entries and their corresponding Tm.
experiment: melting temperature; fluorescence melt of hairpins on a sequencing array, two-state fit, raised by 9.35 °C to match UV melts; settings: sodium 0.088 M
Just the number in °C, nothing appended.

Guide cases for Tm, answers given:
1. GCGGAGATCCGC ((((....)))): 54.2
2. GATCGGATTGCCGATC ((((((....)))))): 55

Give the reported Tm for this sequence. GCGAGCGGTCGC ((((....))))
52

Give the reported Tm for this sequence. GCGTTTGGAAACGAATGC ((.((.(....).)).))
36

Give the reported Tm for this sequence. CGTCCGGAAACGGAACG ((((((....))).)))
49.9

Give the reported Tm for this sequence. GGCAGGACGAAAGTCGCC (((..(((....))))))
55.4

Give the reported Tm for this sequence. GATCCGAATCCGGATC ((((((....))))))
55.8

Give the reported Tm for this sequence. GGGTGCGGAAACGCGCTC (.(.(((....))).).)
57.2

Give the reported Tm for this sequence. GGGCGCGAAAGCGAGCCC ((((((....)))..)))
66.2

Give the reported Tm for this sequence. GCGGGCGAAAGCCGACGC ((((((....)))..)))
61.9

Give the reported Tm for this sequence. GGTATCGGAAACGGTATC (.((.((....)).)).)
30.9

Give the reported Tm for this sequence. GATCGGTCCCCGATC ((((((...))))))
57.4

Give the reported Tm for this sequence. GCGATTGCGAAAGCACGC (((..(((....))))))
51.4

Give the reported Tm for this sequence. GTATGCGAAAGCATTTAC ((((((....)))..)))
30.6

Give the reported Tm for this sequence. GCATCCGAAAGGATGTGC ((((((....)))..)))
60.5

###

Listed next: entries and their corresponding folding enthalpy.
experiment: folding enthalpy; higher = less favourable; fluorescence melt of hairpins on a sequencing array, two-state fit; conditions: sodium 0.088 M
Just the number in kcal/mol, nothing appended.

1) GAAAGCGAAAGCTTCTTC ((((((....)))..))): -24.5
2) GGATACGGAAACGTATCC (((((((....))))))): -40.9
3) GCGGGCCCCCGC ((((....)))): -23.5
4) GGAGGGGGAAACCCCTCC (((((((....))))))): -32
5) GATCTAGGCCTAGATC ((((((....)))))): -56

Continue with the sequence presented below.
Give the reported folding enthalpy for this sequence. GGACTCGAAAGAGCTTCC ((((((....)))..)))
-18.9

Each recorded value in this set is attributed to the array DNA melting data of Ke et al. (doi:10.1101/2024.01.08.574731).
